These measurements were taken from patent US10781181B2.

target: Human FXIa (Homo sapiens (Human)); experiment: Determination of the % inhibition for FXIa; format: biochemical; settings: 40 μM of the test compound, human FXIa, 25° C.; read-out: % Inhibition @ 40 μM (human FXIa)
Sequence (P03951 388-625 limits assumed): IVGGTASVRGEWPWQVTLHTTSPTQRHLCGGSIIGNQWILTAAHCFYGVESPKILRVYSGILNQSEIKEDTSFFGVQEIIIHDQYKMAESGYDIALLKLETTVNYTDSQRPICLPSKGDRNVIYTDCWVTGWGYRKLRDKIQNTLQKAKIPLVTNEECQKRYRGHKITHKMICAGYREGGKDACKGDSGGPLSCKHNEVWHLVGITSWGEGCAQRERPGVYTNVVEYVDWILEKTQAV
Sequence (P03951 19-387 partner limits assumed): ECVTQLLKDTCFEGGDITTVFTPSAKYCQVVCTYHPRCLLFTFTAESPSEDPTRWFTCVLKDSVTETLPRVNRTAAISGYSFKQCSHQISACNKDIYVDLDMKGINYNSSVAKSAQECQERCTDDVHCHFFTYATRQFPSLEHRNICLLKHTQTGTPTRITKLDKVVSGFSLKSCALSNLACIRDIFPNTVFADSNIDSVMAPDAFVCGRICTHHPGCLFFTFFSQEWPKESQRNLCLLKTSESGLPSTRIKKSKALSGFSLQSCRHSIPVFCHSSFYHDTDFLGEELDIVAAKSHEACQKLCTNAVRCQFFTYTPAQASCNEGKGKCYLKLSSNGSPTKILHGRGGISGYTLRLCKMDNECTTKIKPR
parameter: inhibition at 40 µM (%)

Observe how each entry below is paired with its result.
[
  {
    "compound": "COCc1nn(Cc2ccc(Cn3ccccc3=O)cc2)cc1C(=O)NCCOc1ccccc1Cl [Example 6]",
    "parameter": "inhibition at 40 µM",
    "endpointValue": 0
  },
  {
    "compound": "Nc1nn(Cc2ccc(Cn3ccccc3=O)cc2)cc1C(=O)NCCCc1cccc(Cl)c1 [Example 42]",
    "parameter": "inhibition at 40 µM",
    "endpointValue": 0
  },
  {
    "compound": "Nc1nn(Cc2cccc(C(=O)N3CCCC3)c2)cc1C(=O)NCCOc1cccc(Cl)c1 [Example 70]",
    "parameter": "inhibition at 40 µM",
    "endpointValue": 6
  },
  {
    "compound": "Nc1nn(Cc2ccc(Cn3ccccc3=O)cc2)cc1C(=O)N[C@@H]1CCN(Cc2cccc(Cl)c2)C1 [Example 108]",
    "parameter": "inhibition at 40 µM",
    "endpointValue": 0
  },
  {
    "compound": "COCc1nn(Cc2ccc(Cn3ccccc3=O)cc2)cc1C(=O)NCCOc1cc(Cl)ccc1F [Example 9]",
    "parameter": "inhibition at 40 µM",
    "endpointValue": 0
  }
]

A: C[C@H](NC(=O)c1cn(Cc2ccc(Cn3ccccc3=O)cc2)nc1N)C(=O)N(C)c1cccc(Cl)c1 [Example 116]
B: Nc1nn(Cc2ccc(Cn3ccccc3=O)cc2)cc1C(=O)N[C@@H]1CCN(c2cccc(Cl)c2)C1 [Example 106]
C: CNc1nn(Cc2ccc(Cn3ccccc3=O)cc2)cc1C(=O)NCCOc1cccc(Cl)c1 [Example 37]
Challenge: Order by inhibition at 40 µM, ascending. // list labels; follow requested order
Response given: A, B, C
(A: 0%, B: 4%, C: 8%)

a: COCc1nn(Cc2ccc(Cn3cc(C)cn3)cc2)cc1C(=O)NCCOc1cccc(Cl)c1 [Example 27]
b: Nc1nn(Cc2ccnc(N3CCCC3)c2)cc1C(=O)NCCOc1cccc(Cl)c1 [Example 50]
Challenge: Which has the smaller recorded inhibition at 40 µM, a or b ? Output the label that corresponds to your choice.
Response given: a

I: Nc1nn(Cc2ccc(Oc3ccccc3)cc2)cc1C(=O)NCCOc1cccc(Cl)c1 [Example 71]
II: CCOC(=O)c1cccc(Cn2cc(C(=O)NCCOc3cccc(Cl)c3)c(N)n2)c1 [Example 62]
Challenge: Which has the smaller recorded inhibition at 40 µM, I or II ? Output the label that corresponds to your choice.
Response given: I

----------
target: Human plasma kallikrein (Homo sapiens (Human)); experiment: Determination of the IC50 for plasma kallikrein; format: biochemical; conditions: read-out: IC50 (human PKal)
Sequence (P03952 391-638): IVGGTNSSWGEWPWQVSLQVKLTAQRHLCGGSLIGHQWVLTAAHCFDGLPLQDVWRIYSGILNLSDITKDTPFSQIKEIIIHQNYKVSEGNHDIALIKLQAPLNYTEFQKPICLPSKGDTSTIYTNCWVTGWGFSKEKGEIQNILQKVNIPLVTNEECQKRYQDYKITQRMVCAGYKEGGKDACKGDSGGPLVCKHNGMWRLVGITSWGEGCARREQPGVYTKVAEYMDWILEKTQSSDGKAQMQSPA
Sequence (P03952 20-390 partner): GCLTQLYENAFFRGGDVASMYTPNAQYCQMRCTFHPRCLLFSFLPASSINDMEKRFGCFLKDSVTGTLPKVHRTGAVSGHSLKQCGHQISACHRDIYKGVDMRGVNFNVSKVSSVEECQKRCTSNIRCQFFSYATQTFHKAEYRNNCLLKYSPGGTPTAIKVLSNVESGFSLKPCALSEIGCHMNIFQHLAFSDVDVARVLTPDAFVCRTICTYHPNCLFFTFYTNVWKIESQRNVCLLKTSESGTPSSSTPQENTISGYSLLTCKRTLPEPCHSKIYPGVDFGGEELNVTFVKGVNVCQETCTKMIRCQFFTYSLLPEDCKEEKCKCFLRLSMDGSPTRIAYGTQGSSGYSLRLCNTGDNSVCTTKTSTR
pIC50: −log10 of the molar value.
parameter: pIC50

Observe how each entry below is paired with its result.
[
  {
    "compound": "COCc1nn(Cc2ccc(Cn3ccc(C)cc3=O)cc2)cc1C(=O)NCCOc1cccc(Cl)c1",
    "parameter": "pIC50",
    "endpointValue": 6.38
  },
  {
    "compound": "Nc1nn(Cc2ccc(COc3ncccn3)cc2)cc1C(=O)NCCOc1cccc(Cl)c1",
    "parameter": "pIC50",
    "endpointValue": 5.44
  },
  {
    "compound": "Nc1nn(Cc2ccc(Cn3ccccc3=O)cc2)cc1C(=O)NCC(=O)Nc1ccccc1Cl",
    "parameter": "pIC50",
    "endpointValue": 5.26
  },
  {
    "compound": "Nc1nn(Cc2ccc(Cn3ccccc3=O)cc2)cc1C(=O)N[C@@H]1CCN(c2cccc(Cl)c2)C1=O",
    "parameter": "pIC50",
    "endpointValue": 8.40
  },
  {
    "compound": "CC(CNC(=O)c1cn(Cc2ccc(Cn3ccccc3=O)cc2)nc1N)Oc1cccc(Cl)c1 (racemic)",
    "parameter": "pIC50",
    "endpointValue": 7.88
  },
  {
    "compound": "Cc1ccc2cc(Cn3cc(C(=O)NCCOc4cccc(Cl)c4)c(N)n3)ccc2n1",
    "parameter": "pIC50",
    "endpointValue": 6.61
  },
  {
    "compound": "Nc1nn(Cc2ccc(Cn3ccccc3=O)cc2)cc1C(=O)N[C@H]1CCN(c2cccc(Cl)c2)C1=O",
    "parameter": "pIC50",
    "endpointValue": 8.32
  },
  {
    "compound": "COC(=O)c1ccc(Cn2cc(C(=O)NCCOc3cccc(Cl)c3)c(N)n2)cc1",
    "parameter": "pIC50",
    "endpointValue": 5.27
  },
  {
    "compound": "CNC(=O)c1ccc(Cn2cc(C(=O)NCCOc3cccc(Cl)c3)c(N)n2)cc1",
    "parameter": "pIC50",
    "endpointValue": 5.14
  },
  {
    "compound": "Cc1cccn(Cc2ccc(Cn3cc(C(=O)NCCOc4cccc(Cl)c4)c(N)n3)cc2)c1=O",
    "parameter": "pIC50",
    "endpointValue": 8.46
  }
]

I: CN(C)c1nn(Cc2ccc(Cn3ccccc3=O)cc2)cc1C(=O)NCCOc1cccc(Cl)c1
II: Nc1nn(Cc2ccnc(-n3cccn3)c2)cc1C(=O)NCCOc1cccc(Cl)c1
Challenge: Task for the reader: decide whether I or II has the larger pIC50. Output the label that corresponds to your choice.
Response given: I
